Measured Kd accompanies every entry in the list below.
biological target: FcγRIIA (UniProt P12318); test: SPR
measured property: Kd (µM)

binder: Nirsevimab (antibody, V domains shown) VH: QVQLVQSGAEVKKPGSSVMVSCQASGGLLEDYIINWVRQAPGQGPEWMGGIIPVLGTVHYGPKFQGRVTITADESTDTAYMELSSLRSEDTAMYYCATETALVVSETYLPHYFDNWGQGTLVTVSS VL: DIQMTQSPSSLSAAVGDRVTITCQASQDIVNYLNWYQQKPGKAPKLLIYVASNLETGVPSRFSGSGSGTDFSLTISSLQPEDVATYYCQQYDNLPLTFGGGTKVEIK
measured property: Kd
unit abbrev: µM
assay value: 9.3

binder: MEDI8897* (antibody, V domains shown) VH: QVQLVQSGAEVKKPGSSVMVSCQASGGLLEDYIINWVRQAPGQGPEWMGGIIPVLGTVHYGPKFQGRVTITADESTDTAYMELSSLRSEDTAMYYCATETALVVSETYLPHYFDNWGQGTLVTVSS VL: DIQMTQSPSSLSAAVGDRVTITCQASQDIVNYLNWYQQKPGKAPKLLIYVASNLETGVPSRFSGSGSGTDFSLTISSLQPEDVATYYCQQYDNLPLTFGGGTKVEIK
measured property: Kd
unit abbrev: µM
assay value: 3.72

binder: MEDI8897*-TM (antibody, V domains shown) VH: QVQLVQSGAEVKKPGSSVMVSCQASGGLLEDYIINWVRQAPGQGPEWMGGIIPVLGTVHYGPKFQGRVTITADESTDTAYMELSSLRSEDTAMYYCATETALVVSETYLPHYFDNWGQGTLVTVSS VL: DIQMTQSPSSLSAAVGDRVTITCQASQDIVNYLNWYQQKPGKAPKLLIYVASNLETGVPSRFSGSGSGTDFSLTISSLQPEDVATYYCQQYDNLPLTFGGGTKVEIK
measured property: Kd
unit abbrev: µM
assay value: 34.4
